target: CLC-0 E166V mutant (Torpedo marmorata, UniProt P21564, C212S/E166V); assay type: cell-based; conditions: read-out: Apparent affinity (K1/2); −100 mV
List of IC50 values.
State just the number; it will be interpreted in µM.

CCCCCCCC(=O)O [octanoate]	35.3

# input for lookup
Q) Recorded IC50 of O=C(O)COc1ccc(Cl)cc1 [CPA, p-chlorophenoxy acetate] , please.
A) 113

###

Molecular target: CLC-0 E166C mutant (E127/K519) (Torpedo marmorata, UniProt P21564, C212S/E166C)
Sequence (P21564 1-805 E166C/C212S): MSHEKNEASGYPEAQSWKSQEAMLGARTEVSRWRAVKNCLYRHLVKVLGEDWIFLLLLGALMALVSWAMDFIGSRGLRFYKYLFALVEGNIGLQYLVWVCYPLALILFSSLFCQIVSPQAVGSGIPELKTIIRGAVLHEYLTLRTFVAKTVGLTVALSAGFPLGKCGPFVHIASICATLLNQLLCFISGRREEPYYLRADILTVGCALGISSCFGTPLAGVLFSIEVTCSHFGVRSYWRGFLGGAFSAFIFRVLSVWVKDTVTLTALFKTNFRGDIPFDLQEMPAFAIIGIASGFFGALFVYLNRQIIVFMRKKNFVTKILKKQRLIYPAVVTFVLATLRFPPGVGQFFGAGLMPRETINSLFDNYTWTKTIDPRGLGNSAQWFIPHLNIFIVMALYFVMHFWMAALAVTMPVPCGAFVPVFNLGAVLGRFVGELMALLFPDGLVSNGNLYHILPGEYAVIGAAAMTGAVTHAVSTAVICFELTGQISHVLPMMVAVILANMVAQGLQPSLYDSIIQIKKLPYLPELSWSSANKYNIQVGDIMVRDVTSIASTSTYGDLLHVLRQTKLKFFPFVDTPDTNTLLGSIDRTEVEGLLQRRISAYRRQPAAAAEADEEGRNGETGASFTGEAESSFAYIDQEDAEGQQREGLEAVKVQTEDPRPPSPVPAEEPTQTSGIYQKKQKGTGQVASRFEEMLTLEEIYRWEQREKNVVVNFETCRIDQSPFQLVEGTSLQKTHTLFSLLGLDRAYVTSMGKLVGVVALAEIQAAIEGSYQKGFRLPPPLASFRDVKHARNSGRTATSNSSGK
Assay type: cell-based
Conditions: read-out: Apparent affinity (K1/2); −80 mV
parameter-measured: IC50 (µM)
Give the value, in units of µM, as a plain number.

O=C(O)COc1ccc(Cl)cc1 [CPA, p-chlorophenoxy acetate]	186

Moving on to another compound below.
Q) Reported IC50 for CCCCCCCC(=O)O [octanoate] : what is it?
A) 20.7

###

target: CLC-0 E166C/E127Q/K519E mutant (Torpedo marmorata, UniProt P21564, C212S/E127Q/E166C/K519E); assay type: cell-based; settings: read-out: Apparent affinity (K1/2); −80 mV
parameter-measured: IC50 (µM)
Enter your answer as a number in µM; do not include the unit.

Q) Field request: IC50 | item: O=C(O)COc1ccc(Cl)cc1 [CPA, p-chlorophenoxy acetate]
A) 198

###

Biological target: CLC-0 E166S mutant (Torpedo marmorata, UniProt P21564, C212S/E166S)
Sequence (P21564 1-805 E166S/C212S): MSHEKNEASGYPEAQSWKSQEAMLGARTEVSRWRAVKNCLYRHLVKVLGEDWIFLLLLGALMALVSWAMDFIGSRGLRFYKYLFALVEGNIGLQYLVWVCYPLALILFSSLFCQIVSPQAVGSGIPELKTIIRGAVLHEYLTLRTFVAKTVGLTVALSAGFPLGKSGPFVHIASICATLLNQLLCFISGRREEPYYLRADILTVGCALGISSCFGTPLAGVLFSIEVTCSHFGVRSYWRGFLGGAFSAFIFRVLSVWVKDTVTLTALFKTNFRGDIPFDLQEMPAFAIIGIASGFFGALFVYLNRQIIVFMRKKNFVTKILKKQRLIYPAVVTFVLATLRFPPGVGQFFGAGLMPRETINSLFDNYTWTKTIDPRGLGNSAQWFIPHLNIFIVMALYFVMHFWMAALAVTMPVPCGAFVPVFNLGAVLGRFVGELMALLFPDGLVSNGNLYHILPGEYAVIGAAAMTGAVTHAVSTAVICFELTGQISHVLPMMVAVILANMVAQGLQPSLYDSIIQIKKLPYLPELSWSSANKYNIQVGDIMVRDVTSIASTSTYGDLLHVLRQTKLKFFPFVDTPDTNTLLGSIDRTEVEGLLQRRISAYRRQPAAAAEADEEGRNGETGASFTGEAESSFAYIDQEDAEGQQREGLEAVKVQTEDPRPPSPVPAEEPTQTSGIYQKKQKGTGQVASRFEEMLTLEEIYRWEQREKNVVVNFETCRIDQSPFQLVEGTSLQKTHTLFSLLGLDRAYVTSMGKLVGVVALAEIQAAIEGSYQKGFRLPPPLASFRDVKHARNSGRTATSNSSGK
Assay type: cell-based
Conditions: read-out: Apparent affinity (K1/2); −40 mV
parameter-measured: pIC50
# log scale: pIC50 equals minus log10 of the concentration in mol/L

CCCCCCCC(=O)O [octanoate]	3.07

Q) Form field - read-out: pIC50; system: CLC-0 E166S mutant (Torpedo marmorata, UniProt P21564, C212S/E166S); submitted item: O=C(O)COc1ccc(Cl)cc1 [CPA, p-chlorophenoxy acetate]
A) 3.19

###

Each record here notes measured pIC50.
target: CLC-0 E166A mutant (Torpedo marmorata, UniProt P21564, C212S/E166A); format: cell-based; conditions: read-out: Apparent affinity (K1/2); −120 mV
Kindly note that pIC50 refers to -log10 of the concentration in mol/L and answer with the value alone.

Q) Form: Entry = CCCCCCCC(=O)O [octanoate] | System = CLC-0 E166A mutant (Torpedo marmorata, UniProt P21564, C212S/E166A) | pIC50 = ____
A) 5.33

Q) Now give it for O=C(O)COc1ccc(Cl)cc1 [CPA, p-chlorophenoxy acetate] too.
A) 4.60

###

List of pIC50 values.
molecular target: CLC-0 E166A mutant (Torpedo marmorata, UniProt P21564, C212S/E166A); format: cell-based; settings: read-out: Apparent affinity (K1/2); −140 mV
Quick note: pIC50 values are minus log10 of concentrations in mol/L.

O=C(O)COc1ccc(Cl)cc1 [CPA, p-chlorophenoxy acetate]	4.82

Okay, now this compound:
Q) What measured pIC50 goes with CCCCCCCC(=O)O [octanoate] ?
A) 5.55

###

target: CLC-0 E166H mutant (Torpedo marmorata, UniProt P21564, C212S/E166H); type: cell-based; settings: read-out: Apparent affinity (K1/2); −60 mV
parameter-measured: IC50 (mM)
The figure you give is taken to be in mM; do not add the unit.

Q) Would you mind telling me what IC50 value was observed for O=C(O)COc1ccc(Cl)cc1 [CPA, p-chlorophenoxy acetate] ?
A) 5.86

###

molecular target: CLC-0 E166S mutant (Torpedo marmorata, UniProt P21564, C212S/E166S); assay type: cell-based; details: read-out: Apparent affinity (K1/2); −80 mV
parameter-measured: pIC50
Please note pIC50 is a logarithmic value: minus log10 of concentration in mol/L. Answer with that number alone.

CCCCCCCC(=O)O [octanoate]	3.70

Then this compound:
Q) API: value(readout= pIC50, system= CLC-0 E166S mutant (Torpedo marmorata, UniProt P21564, C212S/E166S), query= O=C(O)COc1ccc(Cl)cc1 [CPA, p-chlorophenoxy acetate] )
A) 3.75

###

We begin with a simple list: items and their reported IC50.
Target: CLC-0 E166L mutant (Torpedo marmorata, UniProt P21564, C212S/E166L)
Sequence (P21564 1-805 E166L/C212S): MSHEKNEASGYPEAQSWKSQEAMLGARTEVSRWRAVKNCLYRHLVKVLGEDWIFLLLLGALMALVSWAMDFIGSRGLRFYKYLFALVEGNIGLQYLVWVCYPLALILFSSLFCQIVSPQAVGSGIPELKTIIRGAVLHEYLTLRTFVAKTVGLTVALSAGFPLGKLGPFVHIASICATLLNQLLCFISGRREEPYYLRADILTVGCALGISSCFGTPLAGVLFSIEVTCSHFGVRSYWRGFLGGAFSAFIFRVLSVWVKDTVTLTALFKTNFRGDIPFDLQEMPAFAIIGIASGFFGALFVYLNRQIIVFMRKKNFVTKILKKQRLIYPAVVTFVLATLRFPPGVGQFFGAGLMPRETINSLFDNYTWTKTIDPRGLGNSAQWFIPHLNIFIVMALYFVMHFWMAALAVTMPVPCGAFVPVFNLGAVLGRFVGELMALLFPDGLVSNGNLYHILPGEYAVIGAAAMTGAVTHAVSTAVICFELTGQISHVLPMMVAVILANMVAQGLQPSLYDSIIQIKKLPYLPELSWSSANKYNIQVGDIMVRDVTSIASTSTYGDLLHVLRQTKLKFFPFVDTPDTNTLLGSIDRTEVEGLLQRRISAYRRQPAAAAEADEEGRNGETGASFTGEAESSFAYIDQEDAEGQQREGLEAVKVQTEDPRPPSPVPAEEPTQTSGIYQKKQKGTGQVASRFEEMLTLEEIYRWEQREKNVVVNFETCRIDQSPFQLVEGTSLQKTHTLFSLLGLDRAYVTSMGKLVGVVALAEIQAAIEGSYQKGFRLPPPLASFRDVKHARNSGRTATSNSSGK
Format: cell-based
Details: read-out: Apparent affinity (K1/2); −120 mV
Reply numerically in µM, unit not repeated.

O=C(O)COc1ccc(Cl)cc1 [CPA, p-chlorophenoxy acetate]	470

Next up:
Q) Requested read-out: IC50. Entry: CCCCCCCC(=O)O [octanoate]
A) 32
